Molecular target: T1, corticotropin releasing factor 2 receptor
T1 sequence (Q13324 whole entry, species assumed, looked up): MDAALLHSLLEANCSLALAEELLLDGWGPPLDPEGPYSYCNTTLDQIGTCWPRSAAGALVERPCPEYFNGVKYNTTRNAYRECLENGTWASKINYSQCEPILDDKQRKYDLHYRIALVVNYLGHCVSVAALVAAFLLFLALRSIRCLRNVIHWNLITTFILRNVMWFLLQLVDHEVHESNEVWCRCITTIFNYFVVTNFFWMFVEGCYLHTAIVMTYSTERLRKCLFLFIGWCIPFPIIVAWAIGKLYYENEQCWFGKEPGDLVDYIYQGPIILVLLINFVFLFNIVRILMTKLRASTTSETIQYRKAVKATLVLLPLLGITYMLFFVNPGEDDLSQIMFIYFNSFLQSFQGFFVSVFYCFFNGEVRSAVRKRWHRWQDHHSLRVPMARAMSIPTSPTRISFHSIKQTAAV
Test: cell-based or functional assay
Ends that are not written are not given here.
In this section we review reported CRF2R Emax values for a set of binders.
Entry rule: numbers only, all in %.

Reference set (2 entries):
The binder identified as ZGPPISIDLPYYLLRKMIEIEKQEKEKQQAANNRLLLDTI (C-terminal amide) [SEQ ID NO 40] registered its CRF2R Emax at 93

The binder identified as ZGPPISIDLPIQLLRKMIEIEKQEKEKQQATTNARILARV (C-terminal amide) [SEQ ID NO 150] registered its CRF2R Emax at 70.5

--- query ---
The binder identified as IVLSLDVPIGLLQILLEQAKADAAREQATTNARILARV-NH2 [SEQ ID NO 131] registered its CRF2R Emax at 91
